molecular target: Serotonin 3 (5-HT3) receptor (Rattus norvegicus, UniProt P35563+Q9JJ16); experiment: Compound was evaluated for its in vitro affinity at serotonergic 5-hydroxytryptamine 3 receptor by radioligand binding assay, using [3H]-LY 278584 in rat cerebral cortex membranes.; assay type: cell membranes
Sequence (P35563 whole entry): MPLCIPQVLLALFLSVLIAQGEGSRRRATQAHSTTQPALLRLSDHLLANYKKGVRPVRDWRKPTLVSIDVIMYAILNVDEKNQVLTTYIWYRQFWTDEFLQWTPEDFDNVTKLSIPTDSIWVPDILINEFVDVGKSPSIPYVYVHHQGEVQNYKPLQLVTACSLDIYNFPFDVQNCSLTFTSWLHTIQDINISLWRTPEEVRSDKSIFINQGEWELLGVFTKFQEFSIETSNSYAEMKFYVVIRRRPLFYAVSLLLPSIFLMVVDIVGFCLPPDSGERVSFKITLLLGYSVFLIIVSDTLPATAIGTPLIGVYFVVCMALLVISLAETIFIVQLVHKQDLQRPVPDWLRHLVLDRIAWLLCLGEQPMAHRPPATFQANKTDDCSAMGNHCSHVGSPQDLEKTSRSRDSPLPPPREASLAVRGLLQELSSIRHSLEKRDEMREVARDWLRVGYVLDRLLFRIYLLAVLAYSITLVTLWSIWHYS
Sequence (Q9JJ16 whole entry): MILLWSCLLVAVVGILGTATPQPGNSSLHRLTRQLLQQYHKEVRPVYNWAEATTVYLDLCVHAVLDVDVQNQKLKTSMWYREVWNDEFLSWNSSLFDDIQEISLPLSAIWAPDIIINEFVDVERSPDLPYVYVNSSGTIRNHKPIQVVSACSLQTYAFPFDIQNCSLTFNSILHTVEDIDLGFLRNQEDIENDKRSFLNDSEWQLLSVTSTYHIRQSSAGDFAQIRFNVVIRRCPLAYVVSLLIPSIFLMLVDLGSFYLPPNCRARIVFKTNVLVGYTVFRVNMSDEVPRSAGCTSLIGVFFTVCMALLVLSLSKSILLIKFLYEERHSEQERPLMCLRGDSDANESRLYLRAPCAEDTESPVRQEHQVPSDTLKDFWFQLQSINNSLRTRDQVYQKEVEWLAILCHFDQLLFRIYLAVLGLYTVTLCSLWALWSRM
pKi: −log10 of the molar value.
property: pKi

Reference set (2 entries):
CN1C2CCCC1CC(OC(=O)c1cccc3nc[nH]c13)C2 (stereo not drawn) : 6.17
CN1C2CCC1CC(OC(=O)c1cccc3[nH]cnc13)C2 (stereo in doubt; 24) : < 6.00

Next item in the queue.
Task: Param readout= pKi; system= Serotonin 3 (5-HT3) receptor (Rattus norvegicus, UniProt P35563+Q9JJ16); entry= CN1C2CCC1CC(OC(=O)c1cccc3[nH]cnc13)C2 (stereo in doubt; 23) ; returns value.
Output: < 6.00
